Reported abundance fitness is given for each of the following variants.
B1: Zinc finger homeobox protein 3, residues 2643 to 2698; numbered along this chain, Q15911 (parent)
chain: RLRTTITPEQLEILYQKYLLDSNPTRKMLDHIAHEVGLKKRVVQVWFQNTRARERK

Variants of: B1
test.description: abundance fitness (aPCA) (normalised: wild type 0, dead -1); higher = more abundant; growth selection in yeast, the domain comes from the species named
setup.conditions: Homo sapiens
No unit in the answer, please; the number alone is enough.

stdin: Note abundance fitness for the variant shown: L2H
stdout: -0.006

stdin: Report abundance fitness, nothing else, for this variant: V42T
stdout: 0.037

stdin: Provide only the value of recorded abundance fitness for R1N
stdout: 0.354

stdin: Respond only with abundance fitness recorded for R3K
stdout: 0.209

stdin: Provide abundance fitness value for the following variant: Y18C
stdout: -0.696

stdin: Look up abundance fitness of N23V and report it.
stdout: -0.37

stdin: Recall and state the measured abundance fitness for V42L .
stdout: -0.03

stdin: Item Q10C : provide abundance fitness
stdout: -0.52
